Biological target: Estrogen receptor beta (Homo sapiens, UniProt Q92731)
Sequence (Q92731 whole entry): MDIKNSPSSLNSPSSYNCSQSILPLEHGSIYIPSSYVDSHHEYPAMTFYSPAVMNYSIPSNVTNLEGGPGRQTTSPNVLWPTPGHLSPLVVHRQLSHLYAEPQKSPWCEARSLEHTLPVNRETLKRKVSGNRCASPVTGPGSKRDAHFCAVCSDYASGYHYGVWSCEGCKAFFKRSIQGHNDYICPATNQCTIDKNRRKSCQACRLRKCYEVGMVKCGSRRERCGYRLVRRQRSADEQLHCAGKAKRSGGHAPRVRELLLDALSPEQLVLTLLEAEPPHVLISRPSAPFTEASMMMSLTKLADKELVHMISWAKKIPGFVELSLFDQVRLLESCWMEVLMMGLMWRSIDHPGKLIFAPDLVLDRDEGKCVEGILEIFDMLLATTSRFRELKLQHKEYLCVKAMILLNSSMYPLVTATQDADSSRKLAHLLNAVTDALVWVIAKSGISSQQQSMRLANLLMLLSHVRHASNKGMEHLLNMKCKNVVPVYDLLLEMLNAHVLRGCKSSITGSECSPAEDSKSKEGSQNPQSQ
Labelling: IC50 reported below 200 nM becomes YES; at or above becomes NO.

In [3]: df
Out[3]:
                            chemical_string  class_name
0  Oc1ccc([C@H]2Sc3cc(O)ccc3O[C@H]2c2ccc(CCCN3CCCCC3)cc2)cc1         YES
1  Oc1ccc([C@H]2Sc3cc(O)ccc3O[C@H]2c2ccc(C3CCNCC3)cc2)cc1         YES
2  CN1CCCN(c2ccc([C@@H]3Oc4ccc(O)cc4S[C@@H]3c3ccc(O)cc3)cc2)CC1          NO
3  Oc1ccc([C@H]2Sc3cc(O)ccc3O[C@H]2c2ccc(CN3CCCCC3)cc2)cc1          NO
4  CN1CCN(c2ccc([C@@H]3Oc4ccc(O)cc4S[C@@H]3c3ccc(O)cc3)cc2)CC1         YES
5  Oc1ccc([C@H]2Sc3cc(O)ccc3O[C@H]2CCCN2CCCCC2)cc1         YES
6  Oc1ccc([C@H]2Sc3cc(O)ccc3O[C@H]2c2ccc(COCCN3CCCCC3)cc2)cc1          NO
7  CCN1CCN(c2ccc([C@@H]3Oc4ccc(O)cc4S[C@@H]3c3ccc(O)cc3)cc2)CC1         YES
8  Oc1ccc([C@H]2Sc3cc(O)ccc3O[C@H]2c2ccc(N3CCCNCC3)cc2)cc1         YES
9  Oc1ccc([C@H]2Sc3cc(O)ccc3O[C@H]2c2ccc(C3=CCNCC3)cc2)cc1         YES

====

pIC50: −log10 of the molar value.
Reported pIC50 values, Estrogen receptor (Homo sapiens, UniProt P03372).
readout-type: pIC50

>>> df
                            chemical_string  recorded_number
0  Oc1ccc([C@H]2Sc3cc(O)ccc3O[C@H]2c2ccc(CN3CCCCC3)cc2)cc1             6.81
1  Oc1ccc([C@H]2Sc3cc(O)ccc3O[C@H]2c2ccc(C3=CCNCC3)cc2)cc1             8.85
2  CN1CCN(c2ccc([C@@H]3Oc4ccc(O)cc4S[C@@H]3c3ccc(O)cc3)cc2)CC1             9.00
3  Oc1ccc([C@H]2Sc3cc(O)ccc3O[C@H]2c2ccc(N3CCNCC3)cc2)cc1             8.36
4  Oc1ccc([C@H]2Sc3cc(O)ccc3O[C@H]2c2ccc(CCCN3CCCCC3)cc2)cc1             8.85
5  Oc1ccc([C@H]2Sc3cc(O)ccc3O[C@H]2c2ccc(COCCN3CCCCC3)cc2)cc1             8.64
6  Oc1ccc([C@H]2Sc3cc(O)ccc3O[C@H]2CCCN2CCCCC2)cc1             9.15
7  CCN1CCN(c2ccc([C@@H]3Oc4ccc(O)cc4S[C@@H]3c3ccc(O)cc3)cc2)CC1             9.00
8  CN1CCCN(c2ccc([C@@H]3Oc4ccc(O)cc4S[C@@H]3c3ccc(O)cc3)cc2)CC1             8.44
9  Oc1ccc([C@H]2Sc3cc(O)ccc3O[C@H]2c2ccc(C3CCNCC3)cc2)cc1             8.77

====

Recorded pIC50, one value per entry.
Tested on: MCF7
Experiment: Inhibition of MCF-7 cancer cell proliferation
Assay type: functional, cell-based
Settings: Homo sapiens
pIC50: −log10 of the molar value.
readout-type: pIC50

                            chemical_string  recorded_number
0  CCN1CCN(c2ccc([C@@H]3Oc4ccc(O)cc4S[C@@H]3c3ccc(O)cc3)cc2)CC1             8.85
1  Oc1ccc([C@H]2Sc3cc(O)ccc3O[C@H]2c2ccc(N3CCCNCC3)cc2)cc1             7.55
2  Oc1ccc([C@H]2Sc3cc(O)ccc3O[C@H]2CCCN2CCCCC2)cc1             8.92
3  CN1CCN(c2ccc([C@@H]3Oc4ccc(O)cc4S[C@@H]3c3ccc(O)cc3)cc2)CC1             8.47
4  Oc1ccc([C@H]2Sc3cc(O)ccc3O[C@H]2c2ccc(C3CCNCC3)cc2)cc1             8.72
5  Oc1ccc([C@H]2Sc3cc(O)ccc3O[C@H]2c2ccc(COCCN3CCCCC3)cc2)cc1             7.84
6  Oc1ccc([C@H]2Sc3cc(O)ccc3O[C@H]2c2ccc(N3CCNCC3)cc2)cc1             8.55
7  CN1CCCN(c2ccc([C@@H]3Oc4ccc(O)cc4S[C@@H]3c3ccc(O)cc3)cc2)CC1             7.54
8  Oc1ccc([C@H]2Sc3cc(O)ccc3O[C@H]2c2ccc(CCCN3CCCCC3)cc2)cc1             8.17
9  Oc1ccc([C@H]2Sc3cc(O)ccc3O[C@H]2c2ccc(C3=CCNCC3)cc2)cc1             9.05

Source: ChEMBL document CHEMBL1148423
